Experiment: Photophysical properties (UV–Vis absorption and fluorescence spectra)
Type: physicochemical
Details: DMSO
TEST_READOUT: ε molar absorptivity (M⁻¹ cm⁻¹)

COMPOUND	OBSERVED
CN(C)c1ccc(/C=C/C(=O)c2ccc(N(C)C)cc2)cc1 [3d]	46000
CN(C)c1ccc(/C=C/C(=O)c2ccc(O)cc2)cc1 [3c]	10000
COc1ccc(C(=O)/C=C/c2ccc(N(C)C)cc2)cc1 [3a]	46000
Cc1ccc(C(=O)/C=C/c2ccc(N(C)C)cc2)cc1 [3e]	32000
CN(C)c1ccc(/C=C/C(=O)c2cccs2)cc1 [3b]	31000
CN(C)c1ccc(/C=C/C(=O)c2ccc(N)cc2)cc1 [3f]	35000
